experiment: Toxicokinetics in the 28 day dog study of DIO-902 (with racemic ketoconazole group a); conditions: male, beagle, plasma, po, 2 mg/kg, Drug concentration in plasma, dogs, 2 mg/kg oral, day 1, M, 0 h

{"molecule": "CC(=O)N1CCN(c2ccc(OC[C@@H]3CO[C@@](Cn4ccnc4)(c4ccc(Cl)cc4Cl)O3)cc2)CC1 [DIO-902]", "concentration at 0 h": "< 250 ng/mL"}

###

Experiment: Toxicokinetics of racemic ketoconazole in another 28-day dog study (b)
Settings: male, beagle, dog, plasma, po, 40 mg/kg, Drug concentration in plasma, dogs, study b, powder, 40 mg/kg oral, day 28, M, 2 h
Source text: Two groups of three male and three female dogs per group were studied. Toxicokinetic samples were collected on Day 1 and during Weeks 2 and 4. […] For the following Table: *Days of treatment.

{"compound": "CC(=O)N1CCN(c2ccc(OCC3COC(Cn4ccnc4)(c4ccc(Cl)cc4Cl)O3)cc2)CC1 (racemic) [Racemic ketoconazole]", "concentration at 2 h": "24600 ng/mL"}

###

experiment: Toxicokinetics of racemic ketoconazole in another 28-day dog study (b); settings: male, beagle, dog, plasma, po, 40 mg/kg, Drug concentration in plasma, dogs, study b, powder, 40 mg/kg oral, day 28, M, 0 h

{"molecule": "CC(=O)N1CCN(c2ccc(OCC3COC(Cn4ccnc4)(c4ccc(Cl)cc4Cl)O3)cc2)CC1 (racemic) [Racemic ketoconazole]", "concentration at 0 h": "3970 ng/mL"}

###

test: Toxicokinetics of racemic ketoconazole in another 28-day dog study (b); settings: male, beagle, dog, plasma, po, 40 mg/kg, AUC(0-12), dogs, study b, powder, dose and days not printed in the row (40 mg/kg, day 28), M; footnote: AUC data is for 0-24 h

{"molecule": "CC(=O)N1CCN(c2ccc(OCC3COC(Cn4ccnc4)(c4ccc(Cl)cc4Cl)O3)cc2)CC1 (racemic) [Racemic ketoconazole]", "AUC(0-t), µg·h/mL": 542}

###

assay: Toxicokinetics of racemic ketoconazole in another 28-day dog study (b); conditions: male, beagle, dog, plasma, po, 40 mg/kg, Tmax Range, dogs, study b, powder, dose and days not printed in the row (40 mg/kg, day 28), M

{"molecule": "CC(=O)N1CCN(c2ccc(OCC3COC(Cn4ccnc4)(c4ccc(Cl)cc4Cl)O3)cc2)CC1 (racemic) [Racemic ketoconazole]", "Tmax [h]": 8}

###

experiment: Toxicokinetics in the 28 day dog study of DIO-902 (with racemic ketoconazole group a); settings: male, beagle, plasma, po, 40 mg/kg, Tmax Range, dogs, group a: 40 mg/kg oral, day 1, M

{"molecule": "CC(=O)N1CCN(c2ccc(OCC3COC(Cn4ccnc4)(c4ccc(Cl)cc4Cl)O3)cc2)CC1 (racemic) [Racemic ketoconazole]", "Tmax [h]": 8}

###

assay: Toxicokinetics of racemic ketoconazole in another 28-day dog study (b); conditions: both, beagle, dog, plasma, po, 10 mg/kg, Cmax, dogs, 10 mg/kg, day 28
readout_type: Cmax

{"compound": "CC(=O)N1CCN(c2ccc(OCC3COC(Cn4ccnc4)(c4ccc(Cl)cc4Cl)O3)cc2)CC1 (racemic) [Racemic ketoconazole]", "val": "7520 to 9200 ng/mL"}

###

assay: Toxicokinetics in the 28 day dog study of DIO-902 (with racemic ketoconazole group a); details: male, beagle, plasma, po, 2 mg/kg, Cmax, dogs, 2 mg/kg oral, day 1, M

{"mol": "CC(=O)N1CCN(c2ccc(OC[C@@H]3CO[C@@](Cn4ccnc4)(c4ccc(Cl)cc4Cl)O3)cc2)CC1", "Cmax": "0.51 µg/mL"}

###

Assay: Toxicokinetics of racemic ketoconazole in another 28-day dog study (b)
Conditions: female, beagle, dog, plasma, po, 40 mg/kg, Drug concentration in plasma, dogs, study b, powder, 40 mg/kg oral, day 1, F, 0 h
Excerpt: Two groups of three male and three female dogs per group were studied. Toxicokinetic samples were collected on Day 1 and during Weeks 2 and 4. […] For the following Table: *Days of treatment.
readout_type: concentration at 0 h

{"molecule": "CC(=O)N1CCN(c2ccc(OCC3COC(Cn4ccnc4)(c4ccc(Cl)cc4Cl)O3)cc2)CC1 (racemic) [Racemic ketoconazole]", "val": "< 0.25 µg/mL"}

###

experiment: Toxicokinetics of racemic ketoconazole in another 28-day dog study (b); settings: female, beagle, dog, plasma, po, 40 mg/kg, Drug concentration in plasma, dogs, study b, powder, 40 mg/kg oral, day 28, F, 12 h

{"compound": "CC(=O)N1CCN(c2ccc(OCC3COC(Cn4ccnc4)(c4ccc(Cl)cc4Cl)O3)cc2)CC1 (racemic) [Racemic ketoconazole]", "concentration at 12 h": "29900 ng/mL"}

###

Assay: Toxicokinetics of racemic ketoconazole in another 28-day dog study (b)
Conditions: female, beagle, dog, plasma, po, 40 mg/kg, Cmax, dogs, study b, powder, dose and days not printed in the row (40 mg/kg, day 28), F
From the text: Two groups of three male and three female dogs per group were studied. Toxicokinetic samples were collected on Day 1 and during Weeks 2 and 4. […] For the following Table: *Days of treatment.
readout_type: Cmax

{"compound": "CC(=O)N1CCN(c2ccc(OCC3COC(Cn4ccnc4)(c4ccc(Cl)cc4Cl)O3)cc2)CC1 (racemic) [Racemic ketoconazole]", "val": "42800 ng/mL"}

###

experiment: Toxicokinetics in the 28 day dog study of DIO-902 (with racemic ketoconazole group a); settings: male, beagle, plasma, po, 2 mg/kg, Drug concentration in plasma, dogs, 2 mg/kg oral, day 1, M, 12 h

{"mol": "CC(=O)N1CCN(c2ccc(OC[C@@H]3CO[C@@](Cn4ccnc4)(c4ccc(Cl)cc4Cl)O3)cc2)CC1", "concentration at 12 h": "< 250 ng/mL"}

###

assay: Toxicokinetics of racemic ketoconazole in another 28-day dog study (b); settings: female, beagle, dog, plasma, po, 10 mg/kg, Drug concentration in plasma, dogs, study b, powder, 10 mg/kg oral, day 1, F, 12 h

{"compound": "CC(=O)N1CCN(c2ccc(OCC3COC(Cn4ccnc4)(c4ccc(Cl)cc4Cl)O3)cc2)CC1 (racemic) [Racemic ketoconazole]", "concentration at 12 h": "< 250 ng/mL"}

###

assay: Toxicokinetics in the 28 day dog study of DIO-902 (with racemic ketoconazole group a); settings: female, beagle, plasma, po, 6.5 mg/kg, AUC(0-12), dogs, 6.5 mg/kg oral, day 1, F, n = 1

{"mol": "CC(=O)N1CCN(c2ccc(OC[C@@H]3CO[C@@](Cn4ccnc4)(c4ccc(Cl)cc4Cl)O3)cc2)CC1", "unit_descriptor": "ng·h/mL", "AUC(0-t)": 4700}

###

test: Toxicokinetics of racemic ketoconazole in another 28-day dog study (b); settings: female, beagle, dog, plasma, po, 40 mg/kg, Drug concentration in plasma, dogs, study b, powder, 40 mg/kg oral, day 28, F, 2 h

{"compound": "CC(=O)N1CCN(c2ccc(OCC3COC(Cn4ccnc4)(c4ccc(Cl)cc4Cl)O3)cc2)CC1 (racemic) [Racemic ketoconazole]", "concentration at 2 h": "31600 ng/mL"}

###

experiment: Toxicokinetics in the 28 day dog study of DIO-902 (with racemic ketoconazole group a); conditions: female, beagle, plasma, po, 20 mg/kg, Drug concentration in plasma, dogs, 20 mg/kg oral, day 1, F, 12 h
readout_type: concentration at 12 h

{"compound": "CC(=O)N1CCN(c2ccc(OC[C@@H]3CO[C@@](Cn4ccnc4)(c4ccc(Cl)cc4Cl)O3)cc2)CC1 [DIO-902]", "val": "5440 ng/mL"}

###

assay: Toxicokinetics in the 28 day dog study of DIO-902 (with racemic ketoconazole group a); conditions: male, beagle, plasma, po, 20 mg/kg, Drug concentration in plasma, dogs, 20 mg/kg oral, day 1, M, 1 h
readout_type: concentration at 1 h (ng/mL)

{"mol": "CC(=O)N1CCN(c2ccc(OC[C@@H]3CO[C@@](Cn4ccnc4)(c4ccc(Cl)cc4Cl)O3)cc2)CC1", "readout_type": "concentration at 1 h", "val": 7050}

###

experiment: Toxicokinetics in the 28 day dog study of DIO-902 (with racemic ketoconazole group a); conditions: female, beagle, plasma, po, 2 mg/kg, Drug concentration in plasma, dogs, 2 mg/kg oral, day 1, F, 4 h

{"compound": "CC(=O)N1CCN(c2ccc(OC[C@@H]3CO[C@@](Cn4ccnc4)(c4ccc(Cl)cc4Cl)O3)cc2)CC1 [DIO-902]", "concentration at 4 h [ng/mL]": 280}

###

experiment: Toxicokinetics in the 28 day dog study of DIO-902 (with racemic ketoconazole group a); conditions: female, beagle, plasma, po, 20 mg/kg, Tmax Range, dogs, 20 mg/kg oral, day 28, F

{"compound": "CC(=O)N1CCN(c2ccc(OC[C@@H]3CO[C@@](Cn4ccnc4)(c4ccc(Cl)cc4Cl)O3)cc2)CC1 [DIO-902]", "Tmax": "8 to 12 h"}

###

experiment: Toxicokinetics in the 28 day dog study of DIO-902 (with racemic ketoconazole group a); settings: female, beagle, plasma, po, 20 mg/kg, AUC(0-12), dogs, 20 mg/kg oral, day 28, F;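 also: beagle dogs dosed orally once daily within a 28-day GLP study, 3 animals per sex per group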

{"mol": "CC(=O)N1CCN(c2ccc(OC[C@@H]3CO[C@@](Cn4ccnc4)(c4ccc(Cl)cc4Cl)O3)cc2)CC1", "AUC(0-t) (ng·h/mL)": 77800}
